Examples of binders with documented EC50 (µg/ml), LAG3/MHC class II Blockade bioassay follow.
- Subject of test: T1, human LAG-3 overexpressed on cells (human, UniProt P18627 23-525)
- T1 sequence (looked up): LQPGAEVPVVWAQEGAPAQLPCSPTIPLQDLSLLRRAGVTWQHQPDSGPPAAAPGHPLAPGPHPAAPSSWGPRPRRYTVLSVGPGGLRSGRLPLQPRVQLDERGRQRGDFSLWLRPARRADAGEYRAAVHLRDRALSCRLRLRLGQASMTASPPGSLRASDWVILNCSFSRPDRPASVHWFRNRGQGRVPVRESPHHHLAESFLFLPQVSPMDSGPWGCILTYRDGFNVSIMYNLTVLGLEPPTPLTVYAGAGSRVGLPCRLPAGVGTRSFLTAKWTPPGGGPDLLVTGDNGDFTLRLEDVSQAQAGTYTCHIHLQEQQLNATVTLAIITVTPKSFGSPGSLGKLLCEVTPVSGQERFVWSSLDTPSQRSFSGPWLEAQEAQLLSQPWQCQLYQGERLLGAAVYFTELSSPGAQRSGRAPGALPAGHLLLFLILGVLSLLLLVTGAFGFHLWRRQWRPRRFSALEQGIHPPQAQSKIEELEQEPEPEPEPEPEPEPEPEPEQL
- Method description: cell-based or functional assay
Your answer is read as µg/mL, so omit the unit and give the number.

**Q:** # query: EC50 (µg/ml), LAG3/MHC class II Blockade bioassay of entry LAG3-1E09_LS_1E06 (antibody, V domains shown, Tested as full IgG) VH: EVQLVESGGDLVKPGGSLRLSCAASGFSFSDHYMNWIRQAPGKGLEWVAYIDTSATYIYYADSVKGRFTISRDNAKNSLYLQMNSLRAEDTAVYYCARDNWGSLDYWGQGTLVTVSS VL: DIQMTQSPSSLSASVGDRVTITCQASQDISHYLNWYRQKPGKAPKLLIYDASNLETGVPSRFSGSGSGTLFTLTISSLQPEDFATYYCQQSYSTPYTFGQGTKLEIK
**A:** 0.151

**Q:** Moving on to LAG3-1E09_CDR_1E03 (antibody, V domains shown, Tested as full IgG) VH: EVQLVESGGDLVKPGGSLRLSCAASGFTFNDHYMNWIRQAPGKGLEWVAYIDTTATYIYYADSVKGRFTISRDNAKNSLYLQMNSLRAEDTAVYYCARDNWGSLDYWGQGTLVTVSS VL: DIQMTQSLSSLSASVGDSVTITCQASQDISNYLNWYRQKPGKAPELLIYDTSNLETGVPSRFSGSGSGTDFTLTISSLQPEDFATYYCQQSYSIPYTFGQGTKVEIK
**A:** 1.06

**Q:** Check LAG3-1E09_CDR_1D04 (antibody, V domains shown, Tested as full IgG) VH: EVQLVESGGDLVKPGGSLRLSCAASGFSFSDHYMNWIRQAPGKGLEWVAYIDTSATYIYYADSVKGRFTISRDNAKNSLYLQMNSLRAEDTAVYYCARDNWGSLDYWGQGTLVTVSS VL: DIQMTQSPSSLSASVGDRVTITCQASQDISNYLNWYQQKPGKAPNLLIYDASNLETGVPSRFSGSGSGTDFTLTISSLQPEDFATYYCQQSYITPYTFGQGTKLDIK too.
**A:** 0.655
